test system: CAKI-1 renal; assay: NCI-60 one-dose screen, 48 h; conditions: 10 µM
About 83,000 compounds went through this panel and 20% of them were active in at least one assay; those are over-represented in the sample as a whole. Activity calls are given as the source filed them. The calls were made as follows: active = growth percent below 10; inactive = the rest.
In this exercise, the only acceptable responses are active, inactive

> print(dat)
                                   molecule  assignedclass
1     CC1(CO)CCCC12OCCO2 (stereo not drawn)       inactive
2  COc1cc([C@@H]2c3cc4c(cc3[C@H](SC(=N)N)[C@H]3COC(=O)[C@H]23)OCO4)cc(OC)c1OC         active

Next, consider the following molecule.
Incoming: Check the results log: what was the call for CCOC(=O)Nc1ccc2c(c1)C(=O)N(CC)c1ccccc1O2 ?
Outgoing: inactive
